assay: Electrochemical characteristics of β-galactosidase labeled substrates and their cleaved labels; type: physicochemical; conditions: electrochemical reversibility, per oxidation potential listed
Outcome Measure: Reversible?

Some entries whose results are on file:
> print(dat)
                                   compound     result
1  O=c1ccc2nc3ccc(O[C@@H]4O[C@H](CO)[C@H](O)[C@H](O)[C@H]4O)cc3oc-2c1 [resorufin-β-D-galactopyranoside]        Yes
2                O=c1ccc2nc3ccc(O)cc3oc-2c1        yes
3               OCCOCCOCCOc1ccc(O)c2ccccc12         no
4  COc1ccc(O[C@@H]2O[C@H](CO)[C@H](O)[C@H](O)[C@H]2O)c2ccccc12  quasi, no

For the next question, use this compound.
Entry `COc1ccc(O)c2ccccc12` ; Reversible? = quasi, no
